target: CDK2 (human); assay: Cell-Based Assay; conditions: sw480

SMILES_REPRESENTATION: Cc1[nH]nc2c1N=C(c1ccccc1Cl)c1ccccc1N2
IC50: 1.1 to 9.99 µM

SMILES_REPRESENTATION: Cc1cn[nH]c1-c1[nH]nc2c1N=C(c1ccccc1Cl)c1cc([N+](=O)[O-])ccc1N2
IC50: 0.01 to 1 µM

SMILES_REPRESENTATION: O=[N+]([O-])c1ccc2c(c1)C(c1ccccc1Cl)=Nc1c(n[nH]c1-c1ccncc1)N2
IC50: 10 to 30 µM

SMILES_REPRESENTATION: Cc1[nH]nc2c1N=C(c1ccccc1)c1cc(Br)ccc1N2
IC50: 10 to 30 µM

SMILES_REPRESENTATION: Fc1ccc2c(c1)C(c1ccccc1F)=Nc1c[nH]nc1N2
IC50: 10 to 30 µM

SMILES_REPRESENTATION: Cc1[nH]nc2c1N=C(c1ccccc1Cl)c1cc(NS(C)(=O)=O)ccc1N2
IC50: 0.01 to 1 µM

SMILES_REPRESENTATION: Cc1[nH]nc2c1N=C(c1ccccc1F)c1cc(I)ccc1N2
IC50: 1.1 to 9.99 µM

SMILES_REPRESENTATION: Clc1ccccc1C1=Nc2c[nH]nc2Nc2ccccc21
IC50: 10 to 30 µM

SMILES_REPRESENTATION: COc1ccc2c(c1)C(c1ccccc1Cl)=Nc1c(n[nH]c1C)N2
IC50: 1.1 to 9.99 µM

SMILES_REPRESENTATION: c1ccc(C2=Nc3c[nH]nc3Nc3ccccc32)cc1
IC50: 10 to 30 µM

SMILES_REPRESENTATION: Cc1[nH]nc2c1N=C(c1ccccc1)c1cc(Cl)ccc1N2
IC50: 1.1 to 9.99 µM

SMILES_REPRESENTATION: CC(=O)Nc1ccc2c(c1)C(c1ccccc1Cl)=Nc1c(n[nH]c1C)N2
IC50: 0.01 to 1 µM

SMILES_REPRESENTATION: Cc1[nH]nc2c1N=C(c1ccccc1F)c1cc(C(=O)N3CCOCC3)ccc1N2
IC50: 0.01 to 1 µM

SMILES_REPRESENTATION: Cc1[nH]nc2c1N=C(c1ccccc1F)c1cc(C(N)=O)ccc1N2
IC50: 0.01 to 1 µM

SMILES_REPRESENTATION: Cc1[nH]nc2c1N=C(c1ccccc1)c1cc(F)ccc1N2
IC50: 1.1 to 9.99 µM

SMILES_REPRESENTATION: O=[N+]([O-])c1ccc2c(c1)C(c1ccccc1Cl)=Nc1c(n[nH]c1C1CC1)N2
IC50: 1.1 to 9.99 µM

SMILES_REPRESENTATION: Cc1[nH]nc2c1N=C(c1ccccc1Cl)c1cc(Cl)ccc1N2
IC50: 1.1 to 9.99 µM

SMILES_REPRESENTATION: Cc1[nH]nc2c1N=C(c1ccccc1F)c1cc(F)ccc1N2
IC50: 0.01 to 1 µM

SMILES_REPRESENTATION: N#Cc1ccc2c(c1)C(c1ccccc1F)=Nc1c[nH]nc1N2
IC50: 1.1 to 9.99 µM

SMILES_REPRESENTATION: N#Cc1ccc2c(c1)C(c1ccccc1F)=Nc1c(n[nH]c1CO)N2
IC50: 0.01 to 1 µM

SMILES_REPRESENTATION: O=[N+]([O-])c1ccc2c(c1)C(c1ccccc1Cl)=Nc1c(n[nH]c1-c1cc3ccccc3[nH]1)N2
IC50: 10 to 30 µM

SMILES_REPRESENTATION: C=CC(=O)Nc1ccc2c(c1)C(c1ccccc1Cl)=Nc1c(n[nH]c1C)N2
IC50: 0.01 to 1 µM

###

molecular target: CDK2 (human) (UniProt P24941); assay: Cell-Based Assay; conditions: hct 116

SMILES_REPRESENTATION: CSc1ccc(-c2[nH]nc3c2N=C(c2ccccc2Cl)c2cc([N+](=O)[O-])ccc2N3)cc1
IC50: 10 to 30 µM
//
SMILES_REPRESENTATION: CC(C)c1[nH]nc2c1N=C(c1ccccc1Cl)c1cc([N+](=O)[O-])ccc1N2
IC50: 1.1 to 9.99 µM
//
SMILES_REPRESENTATION: CCOC(=O)c1ccc2c(c1)C(c1ccccc1F)=Nc1c(n[nH]c1C)N2
IC50: 1.1 to 9.99 µM
//
SMILES_REPRESENTATION: Nc1ccc2c(c1)C(c1ccccc1Cl)=Nc1c[nH]nc1N2
IC50: 10 to 30 µM
//
SMILES_REPRESENTATION: O=[N+]([O-])c1ccc2c(c1)C(c1ccccc1Cl)=Nc1c(n[nH]c1C1CC1)N2
IC50: 1.1 to 9.99 µM

###

Quick list: pIC50 per entry.
molecular target: CDK2 (human); test: Cell-Based Assay; details: hct 116
pIC50: −log10 of the molar value.

SMILES_REPRESENTATION: NC(=O)c1ccc2c(c1)C(c1ccccc1F)=Nc1c[nH]nc1N2
STUDY_SYSTEM: CDK2 (human)
pIC50: 5.00 to 5.96

SMILES_REPRESENTATION: CCCc1[nH]nc2c1N=C(c1ccccc1Cl)c1cc([N+](=O)[O-])ccc1N2
STUDY_SYSTEM: CDK2 (human)
pIC50: 4.52 to 5.00

SMILES_REPRESENTATION: Fc1ccccc1C1=Nc2c[nH]nc2Nc2ccccc21
STUDY_SYSTEM: CDK2 (human)
pIC50: 4.52 to 5.00

SMILES_REPRESENTATION: O=[N+]([O-])c1ccc2c(c1)C(c1ccccc1Cl)=Nc1c(n[nH]c1-c1ccco1)N2
STUDY_SYSTEM: CDK2 (human)
pIC50: 4.52 to 5.00

SMILES_REPRESENTATION: O=[N+]([O-])c1ccc2c(c1)C(c1ccccc1Cl)=Nc1c(n[nH]c1-c1ccccc1)N2
STUDY_SYSTEM: CDK2 (human)
pIC50: 4.52 to 5.00

SMILES_REPRESENTATION: O=[N+]([O-])c1ccc2c(c1)C(c1ccccc1Cl)=Nc1c(n[nH]c1-c1cccs1)N2
STUDY_SYSTEM: CDK2 (human)
pIC50: 4.52 to 5.00

SMILES_REPRESENTATION: O=[N+]([O-])c1ccc2c(c1)C(c1ccccc1)=Nc1c[nH]nc1N2
STUDY_SYSTEM: CDK2 (human)
pIC50: 4.52 to 5.00

SMILES_REPRESENTATION: Cc1ccsc1-c1[nH]nc2c1N=C(c1ccccc1Cl)c1cc([N+](=O)[O-])ccc1N2
STUDY_SYSTEM: CDK2 (human)
pIC50: 4.52 to 5.00

SMILES_REPRESENTATION: O=[N+]([O-])c1ccc2c(c1)C(c1ccccc1Cl)=Nc1c(n[nH]c1-c1ccncc1)N2
STUDY_SYSTEM: CDK2 (human)
pIC50: 4.52 to 5.00

SMILES_REPRESENTATION: N#Cc1ccc2c(c1)C(c1ccccc1F)=Nc1c[nH]nc1N2
STUDY_SYSTEM: CDK2 (human)
pIC50: 5.00 to 5.96

###

target: CDK2 (human) (UniProt P24941); experiment: Cell-Based Assay; conditions: sw480
Quick list: IC50 per entry.

SMILES_REPRESENTATION: NNC(=O)c1[nH]nc2c1N=C(c1ccccc1Cl)c1cc([N+](=O)[O-])ccc1N2
IC50: 10 to 30 µM
--
SMILES_REPRESENTATION: NC(=O)c1ccc2c(c1)C(c1ccccc1F)=Nc1c[nH]nc1N2
IC50: 1.1 to 9.99 µM
--
SMILES_REPRESENTATION: O=[N+]([O-])c1ccc2c(c1)C(c1ccccc1Cl)=Nc1c(n[nH]c1-c1cccs1)N2
IC50: 10 to 30 µM
--
SMILES_REPRESENTATION: Cc1[nH]nc2c1N=C(c1ccccc1F)c1cc(C(=O)NCCO)ccc1N2
IC50: 0.01 to 1 µM
--
SMILES_REPRESENTATION: Cc1ccccc1-c1[nH]nc2c1N=C(c1ccccc1Cl)c1cc([N+](=O)[O-])ccc1N2
IC50: 10 to 30 µM
--
SMILES_REPRESENTATION: O=[N+]([O-])c1ccc2c(c1)C(c1ccccc1Cl)=Nc1c(n[nH]c1-c1cccc3ccccc13)N2
IC50: 10 to 30 µM
--
SMILES_REPRESENTATION: Cc1[nH]nc2c1N=C(c1ccccc1Cl)c1cc(NS(=O)(=O)N3CCOCC3)ccc1N2
IC50: 1.1 to 9.99 µM
--
SMILES_REPRESENTATION: CCc1[nH]nc2c1N=C(c1ccccc1Cl)c1cc([N+](=O)[O-])ccc1N2
IC50: 0.01 to 1 µM
--
SMILES_REPRESENTATION: CCOC(=O)c1ccc2c(c1)C(c1ccccc1F)=Nc1c(n[nH]c1C)N2
IC50: 1.1 to 9.99 µM
--
SMILES_REPRESENTATION: CCCc1[nH]nc2c1N=C(c1ccccc1Cl)c1cc([N+](=O)[O-])ccc1N2
IC50: 10 to 30 µM
